Test: Metabolic stability assessed as mouse CYP-mediated metabolism by measuring half life
Format: ADME
Measured Parameter: half-life (min)
Use min as the unit, but write only the number.

half-life for CCC(c1nc2ncc(Cl)cc2[nH]1)[C@H]1CC[C@@H](c2ccnc3ccc(C(F)(F)F)cc32)CC1 (stereo partly specified) ?
17

* * *

Experiment: Metabolic stability assessed as dog CYP-mediated metabolism by measuring half life
Format: ADME, Canis lupus familiaris
Measured Parameter: half-life (min)
Write down the numeric answer in min and omit the unit.

Query: half-life; subject: CCC(c1nc2ncc(Cl)cc2[nH]1)[C@H]1CC[C@@H](c2ccnc3ccc(C(F)(F)F)cc32)CC1 (stereo partly specified)
41
